# kon per entry
# test.target: T1, recombinant soluble human GARP-TGFβ1 complex (human, UniProt Q14392 20-628; P01137 30-390)
# T1 construct: co-expressed in HEK293E, purified by the Strep-Tag; TGFβ consists of LAP and mature TGFβ; also called shGARP-TGFβ; rhGARP-TGFβ
# T1 sequence (Q14392 other isoform, or with tags, fused parts or gaps limits assumed, chain 1 of 2): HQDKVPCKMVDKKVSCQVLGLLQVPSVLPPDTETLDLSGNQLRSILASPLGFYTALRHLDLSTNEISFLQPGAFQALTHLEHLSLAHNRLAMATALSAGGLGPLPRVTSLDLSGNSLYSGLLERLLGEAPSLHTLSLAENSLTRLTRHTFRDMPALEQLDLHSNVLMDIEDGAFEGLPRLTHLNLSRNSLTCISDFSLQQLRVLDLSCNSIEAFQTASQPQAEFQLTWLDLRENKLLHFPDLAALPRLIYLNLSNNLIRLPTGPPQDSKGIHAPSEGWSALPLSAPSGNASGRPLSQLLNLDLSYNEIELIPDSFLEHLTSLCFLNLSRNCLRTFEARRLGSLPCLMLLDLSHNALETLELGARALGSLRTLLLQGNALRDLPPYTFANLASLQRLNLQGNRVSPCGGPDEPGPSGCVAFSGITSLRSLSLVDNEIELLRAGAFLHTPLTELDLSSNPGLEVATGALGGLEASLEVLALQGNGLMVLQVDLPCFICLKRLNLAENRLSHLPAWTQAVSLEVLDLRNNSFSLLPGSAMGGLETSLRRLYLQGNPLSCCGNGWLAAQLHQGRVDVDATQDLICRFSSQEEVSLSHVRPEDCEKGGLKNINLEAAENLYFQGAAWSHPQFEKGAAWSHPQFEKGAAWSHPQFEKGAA
# T1 sequence (P01137 30-390 limits assumed, chain 2 of 2): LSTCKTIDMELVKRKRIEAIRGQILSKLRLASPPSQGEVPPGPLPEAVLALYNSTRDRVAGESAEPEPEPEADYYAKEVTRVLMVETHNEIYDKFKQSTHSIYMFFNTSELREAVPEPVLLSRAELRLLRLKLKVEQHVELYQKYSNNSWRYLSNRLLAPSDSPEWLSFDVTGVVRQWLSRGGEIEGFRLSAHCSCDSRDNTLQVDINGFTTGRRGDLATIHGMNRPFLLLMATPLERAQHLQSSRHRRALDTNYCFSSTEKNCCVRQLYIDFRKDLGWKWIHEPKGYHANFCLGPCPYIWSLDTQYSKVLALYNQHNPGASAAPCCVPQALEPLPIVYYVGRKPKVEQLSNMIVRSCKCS
# measurement.notes: SPR (Biacore), hGARP-TGFβ1 immobilised
Hi, when you answer, please include the unit after the number. Thanks!

Given the entry LHG-10 (antibody, human IgG1, V domains shown, llama-derived V regions in a full human IgG1) VH: EVQLVQPGAELRNSGASVKVSCKASGYRFTSYYIDWVRQAPGQGLEWMGRIDPEDGGTKYAQKFQGRVTFTADTSTSTAYVELSSLRSEDTAVYYCARNEWETVVVGDLMYEYEYWGQGTQVTVSS VL: DIQMTQSPTSLSASLGDRVTITCQASQSISSYLAWYQQKPGQAPKLLIYGASRLQTGVPSRFSGSGSGTSFTLTISGLEAEDAGTYYCQQYDSLPVTFGQGTKVELK , report its measured kon.
239000 M⁻¹ s⁻¹

# iterate: LHG-10.5-D (antibody, human IgG1, V domains shown) VH: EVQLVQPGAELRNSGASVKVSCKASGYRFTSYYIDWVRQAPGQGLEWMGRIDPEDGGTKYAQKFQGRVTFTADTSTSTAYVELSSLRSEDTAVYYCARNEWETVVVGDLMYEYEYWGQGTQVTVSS VL: DIQMTQSPSSLSPSLGDRVTITCQASQTISSFLAWYHQKPGQPPKLLIYRASIPQTGVPSRFSGSGSGTSFTLTIGGLEAEDAGTYYCQQYVSAPPTFGQGTKVELK
383000 M⁻¹ s⁻¹

# iterate: LHG-10.4 (antibody, human IgG1, V domains shown, VK-shuffled variant of LHG-10, human IgG1) VH: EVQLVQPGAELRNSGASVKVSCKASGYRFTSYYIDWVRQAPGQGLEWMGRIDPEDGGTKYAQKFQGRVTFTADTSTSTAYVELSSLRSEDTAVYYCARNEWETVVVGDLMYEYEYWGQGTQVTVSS VL: DIQMTQSPSSLSASLGDRVTITCQASQSISSYLAWYQQKPGQAPKLLIYGTSRLKTGVPSRFSGSGSGTSFTLTISGLEAEDAGTYYCQQYYSAPVTFGQGTKVELK
448000 M⁻¹ s⁻¹
